Target: T1, IL-18 binding protein (IL-18BP) (UniProt O95998 31-194); further: unit not given here
T1 sequence (looked up): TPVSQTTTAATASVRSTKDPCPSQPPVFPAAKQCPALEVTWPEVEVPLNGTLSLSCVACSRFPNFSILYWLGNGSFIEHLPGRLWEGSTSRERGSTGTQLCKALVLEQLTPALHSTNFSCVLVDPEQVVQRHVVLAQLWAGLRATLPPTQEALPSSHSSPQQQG
Experiment: cell-based or functional assay
readout: Activity, +100 nM BP, DF-25000004
Field format: numeric only.

>  <binder>
IL-18 variant G3E, E6H, R27S, D54A, S55T, T63S, N91F, R104S (ligand) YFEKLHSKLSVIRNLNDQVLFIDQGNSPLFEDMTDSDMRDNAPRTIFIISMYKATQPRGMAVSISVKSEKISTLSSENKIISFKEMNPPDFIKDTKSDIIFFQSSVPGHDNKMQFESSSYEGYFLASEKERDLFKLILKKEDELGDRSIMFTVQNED

>  <assay value>
0.41

$$$$
>  <binder>
IL-18 variant G3L, E6Q, D54Y, S55P, T63S, N91S, R104Q (ligand) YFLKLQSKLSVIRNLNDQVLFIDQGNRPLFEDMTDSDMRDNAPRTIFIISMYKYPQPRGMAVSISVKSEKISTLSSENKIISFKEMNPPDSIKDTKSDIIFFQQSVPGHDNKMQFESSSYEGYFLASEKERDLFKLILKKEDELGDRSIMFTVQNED

>  <assay value>
0.1

$$$$

Continue with the binder presented below.
Please report Activity, +100 nM BP, DF-25000004 for the following binder: IL-18 variant G3Y, E6N, N91Y, R104S (ligand) YFYKLNSKLSVIRNLNDQVLFIDQGNRPLFEDMTDSDMRDNAPRTIFIISMYKDSQPRGMAVTISVKSEKISTLSSENKIISFKEMNPPDYIKDTKSDIIFFQSSVPGHDNKMQFESSSYEGYFLASEKERDLFKLILKKEDELGDRSIMFTVQNED
0.6

These entries and their values trace back to patent US20240182536A1.
